assay: Thermodynamic solubility of the compound by quantitative nitrogen detection assay; assay type: physicochemical; settings: read-out: Therm_solubility
Listed molecules paired with reported solubility thermodynamic
Enter your answer as a number in µM; do not include the unit.

# example entries with known answers
Cn1ncc2c(=O)n(-c3cccc(Cl)c3)c(SCc3cccc(F)c3)nc21 | 55
O=c1c2cn(C3COC3)nc2nc(SCc2cccc(F)c2)n1-c1ccccc1 | 5

Please report the recorded solubility thermodynamic for Cc1ccccc1-n1c(SCc2cccc(F)c2)nc2[nH]ncc2c1=O .
2

Please report the recorded solubility thermodynamic for Cc1ccccc1-n1c(SCc2cccc(F)c2)nc2c(cnn2C)c1=O .
38

----------
test: Plasma concentration in CD1 mouse at 10 mg/kg, ip measured after 0.5 hrs by LC-MS/MS analysis; assay type: ADME, organism-based
Listed molecules paired with reported concentration at 0.5 h
The answer should read as a number with its unit following.

O=c1c2cn(C3COC3)nc2nc(SCc2cccc(F)c2)n1-c1ccccc1 | 7.6 µM

# context switch: different molecule, same concentration at 0.5 h
Please report the recorded concentration at 0.5 h for O=c1c2cn(CC3COC3)nc2nc(SCc2cccc(F)c2)n1-c1ccccc1 .
5.6 µM
